# target: p53-Y220C mutant protein (Homo sapiens, UniProt P04637, Y220C)
# Construct: The recombinant Y220C p53 DBD protein with his-tag
# method: In vitro DNA binding activity assay (TR-FRET)
# Format: biochemical
# measurement.context: concentration required to increase the binding activity of protein to DNA by 50%
quantity: SC150
Answer with the value and then the unit.

Name the recorded SC150 for CN1CC[C@@H](Nc2cccc3c(CC(F)(F)F)c(C#CCNC(=O)c4cnn(C5(C)CC5)c4)nn23)[C@@H](F)C1 [Compound 010] .
9 nM

Name the recorded SC150 for CC(C)c1cc(C(=O)NCC#Cc2nn3c(N[C@@H]4CCN(C)C[C@@H]4F)cccc3c2CC(F)(F)F)no1 [Compound 321] .
99 nM

Name the recorded SC150 for CN1CC[C@@H](Nc2cccc3c(CC(F)(F)F)c(C#CCNC(=O)c4ccc(C(C)(C)O)cc4)nn23)[C@@H](F)C1 [Compound 230] .
29 nM

Name the recorded SC150 for CN1CC[C@@H](Nc2cccc3c(CC(F)(F)F)c(C#CCNC(=O)c4cccc(C(C)(C)O)c4)nn23)[C@@H](F)C1 [Compound 334] .
33 nM

Name the recorded SC150 for CC(C1CC1)n1ncc(C(=O)NCC#Cc2nn3c(N[C@@H]4CCN(C)C[C@@H]4F)cccc3c2CC(F)(F)F)c1N (single isomer, unassigned) [Compound 291A] .
3 nM

Name the recorded SC150 for CN1CC[C@@H](Nc2cccc3c(CC(F)(F)F)c(C#CCNC(=O)c4cc5n(c4)CCC5)nn23)[C@@H](F)C1 [Compound 260] .
18 nM

Name the recorded SC150 for CN1CC[C@@H](Nc2cccc3c(CC(F)(F)F)c(C#CCNC(=O)c4cnn(C(C)(C)C(F)(F)F)c4)nn23)[C@@H](F)C1 [Compound 148] .
27 nM

Name the recorded SC150 for CN1CC[C@@H](Nc2cccc3c(CC(F)(F)F)c(C#CCNC(=O)c4cn(C)c(C(F)F)n4)nn23)[C@@H](F)C1 [Compound 309] .
74 nM

Name the recorded SC150 for CN1CC[C@@H](Nc2cccc3c(CC(F)(F)F)c(C#CCNC(=O)c4cnn(C5CC5)c4N)nn23)[C@@H](F)C1 [Compound 305] .
7 nM

###

# target: p53-Y220C mutant protein (Homo sapiens, UniProt P04637, Y220C)
# Construct: The recombinant Y220C p53 DBD protein with his-tag
# method: In vitro DNA binding activity assay (TR-FRET)
# Format: biochemical
# measurement.context: concentration required to increase the binding activity of protein to DNA by 50%
quantity: SC150 (nM)
Report only the number, with the unit nM understood.

Which SC150 is reported with p53-Y220C mutant protein (Homo sapiens, UniProt P04637, Y220C) for this entry: CN1CC[C@@H](Nc2cccc3c(CC(F)(F)F)c(C#CCNC(=O)c4cnn(C(C)(C)C)c4N)nn23)[C@@H](F)C1 [Compound 047] ?
7

Which SC150 is reported with p53-Y220C mutant protein (Homo sapiens, UniProt P04637, Y220C) for this entry: CCn1cc(C(=O)NCC#Cc2nn3c(N[C@@H]4CCN(C)C[C@@H]4F)cccc3c2CC(F)(F)F)cn1 [Compound 004] ?
6

Which SC150 is reported with p53-Y220C mutant protein (Homo sapiens, UniProt P04637, Y220C) for this entry: CN1CC[C@@H](Nc2cccc3c(CC(F)(F)F)c(C#CCNC(=O)c4cnn(C5CC5)c4)nn23)[C@@H](F)C1 [Compound 005] ?
16

Which SC150 is reported with p53-Y220C mutant protein (Homo sapiens, UniProt P04637, Y220C) for this entry: CN1CC[C@@H](Nc2cccc3c(CC(F)(F)F)c(C#CCNC(=O)c4ccc(N(C)C)nc4)nn23)[C@@H](F)C1 [Compound 328] ?
30

Which SC150 is reported with p53-Y220C mutant protein (Homo sapiens, UniProt P04637, Y220C) for this entry: COC(C)(C)Cn1cc(C(=O)NCC#Cc2nn3c(N[C@@H]4CCN(C)C[C@@H]4F)cccc3c2CC(F)(F)F)cn1 [Compound 039] ?
10

Which SC150 is reported with p53-Y220C mutant protein (Homo sapiens, UniProt P04637, Y220C) for this entry: CN(C)C1CC[C@@H](Nc2cccc3c(CC(F)(F)F)c(C#CCNC(=O)c4cnn(C(C)(C)C)c4N)nn23)[C@@H](F)C1 (single isomer, unassigned) [Compound 358-B] ?
32

Which SC150 is reported with p53-Y220C mutant protein (Homo sapiens, UniProt P04637, Y220C) for this entry: CN1CC[C@@H](Nc2cccc3c(CC(F)(F)F)c(C#CCNC(=O)c4cnn5c4CCC5)nn23)[C@@H](F)C1 [Compound 231] ?
19

Which SC150 is reported with p53-Y220C mutant protein (Homo sapiens, UniProt P04637, Y220C) for this entry: Cc1ccc(C(=O)NCC#Cc2nn3c(N[C@@H]4CCN(C)C[C@@H]4F)cccc3c2CC(F)(F)F)cc1 [Compound 160] ?
84

Which SC150 is reported with p53-Y220C mutant protein (Homo sapiens, UniProt P04637, Y220C) for this entry: CN1CC[C@@H](Nc2cccc3c(CC(F)(F)F)c(C#CCNC(=O)c4cnn5c4COCC5)nn23)[C@@H](F)C1 [Compound 274] ?
12

Which SC150 is reported with p53-Y220C mutant protein (Homo sapiens, UniProt P04637, Y220C) for this entry: CCN1CC[C@@H](Nc2cccc3c(CC(F)(F)F)c(C#CCNC(=O)c4cnn(C(C)(C)C)c4N)nn23)[C@@H](F)C1 [Compound 353] ?
4

Which SC150 is reported with p53-Y220C mutant protein (Homo sapiens, UniProt P04637, Y220C) for this entry: CN1CC[C@@H](Nc2cccc3c(CC(F)(F)F)c(C#CCNC(=O)c4ccc(N5CCCCC5)nc4)nn23)[C@@H](F)C1 [Compound 316] ?
97
